System: SKBR3 cells
Assay: SKBR3 Cell Viability Assay (CellTiter Glo)
Type: cell-based
Conditions: Homo sapiens, SK-BR-3, 72 hours, CellTiter Glo luminescence, read-out: MCL-1 CV SKBR3 EC50
Method: SKBR3 Cell Viability Assay Materials […] The cell viability assay was conducted in a 384-well tissue culture plate (Grenier 781086, Monroe, N.C.) in a total volume of 70 μL. […] Luminescence was read by Envision multimode reader (PerkinElmer). […] Percent inhibition was calculated as followed: % Inhibition=100%*(Well−Neg)/(Pos−Neg) Neg, negative control, DMSO Pos, positive control, 10 μM Puromycin
observable: pEC50
Convention used: pEC50 is expressed as -log10 of the molar concentration.

State the recorded pEC50 for this entry: CO[C@H]1/C=C/C[C@H](C)C[S@@](=O)(NC(=O)N2CC(N3CCN4CCOC[C@@H]4C3)C2)=NC(=O)c2ccc3c(c2)N(C[C@@H]2CC[C@H]21)C[C@@]1(CCCc2cc(Cl)ccc21)CO3 [Example 297] 7.16

* * *

Target: MCL-1/Bim interaction (recombinant human MCL-1 protein, residues 171-327; biotinylated human Bim peptide, residues 51-76) (Homo sapiens (Human))
Sequence (Q07820 171-327): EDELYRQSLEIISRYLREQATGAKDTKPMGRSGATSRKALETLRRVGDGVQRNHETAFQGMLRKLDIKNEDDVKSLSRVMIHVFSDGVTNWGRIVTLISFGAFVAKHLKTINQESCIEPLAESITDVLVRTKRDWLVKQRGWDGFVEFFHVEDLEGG
Assay: MCL-1/Bim Binding AlphaLISA Assay
Conditions: 0.0625 nM 6xHis-Mcl-1 (171-327), 0.0625 nM biotinylated-Bim peptide
Procedure: MCL-1/Bim Binding AlphaLISA Assay. Inhibition of the MCL-1 and Bim interaction was measured in the following AlphaLISA assay. Recombinant human MCL-1 protein (C-terminal 6×His Tagged Mcl-1 containing residues 171-327) was generated at Gilead Sciences, Inc. (Foster City, Calif.). […] The AlphaLISA assay was performed in a 384-well Proxiplate in a total volume of 40 μL. […] The reaction plates were then read on an Envision multimode reader (PerkinElmer) using AlphaScreen settings. […]
# label = YES if IC50 < 0.1 nM else NO

Is 0.1 nM strictly greater than the compound's reported IC50? compound: CO[C@H]1/C=C/C[C@H](C)C[S@@](=O)(NC(=O)N[C@H]2[C@@H]3COC[C@@H]32)=NC(=O)c2ccc3c(c2)N(C[C@@H]2CC[C@H]21)C[C@@]1(CCCc2cc(Cl)ccc21)CO3 YES

Is 0.1 nM strictly greater than the compound's reported IC50? compound: CO[C@H]1/C=C/C[C@H](C)[C@@H](C)[S@@](=O)(NC(=O)COC2COC2)=NC(=O)c2ccc3c(c2)N(C[C@@H]2CC[C@H]21)C[C@@]1(CCCc2cc(Cl)ccc21)CO3 NO

Is 0.1 nM strictly greater than the compound's reported IC50? compound: COC(=O)N1CCN(C(=O)N[S@@]2(=O)=NC(=O)c3ccc4c(c3)N(C[C@@H]3CC[C@H]3[C@@H](OC)/C=C/C[C@H](C)C2)C[C@@]2(CCCc3cc(Cl)ccc32)CO4)CC1 YES

Is 0.1 nM strictly greater than the compound's reported IC50? compound: CO[C@H]1/C=C/C[C@H](C)C[S@@](=O)(NC(=O)N2CCN(C(=O)OC(C)(C)C)[C@H](C)C2)=NC(=O)c2ccc3c(c2)N(C[C@@H]2CC[C@H]21)C[C@@]1(CCCc2cc(Cl)ccc21)CO3 NO

* * *

target: MCL-1/Bim interaction (recombinant human MCL-1 protein, residues 171-327; biotinylated human Bim peptide, residues 51-76) (Homo sapiens (Human)); assay: MCL-1/Bim Binding AlphaLISA Assay; details: 0.0625 nM 6xHis-Mcl-1 (171-327), 0.0625 nM biotinylated-Bim peptide
For each record, write down the corresponding IC50.

State the recorded IC50 for this entry: CO[C@H]1/C=C/CCC[S@@](=O)(NC(=O)NC(C)(C)C(F)(F)F)=NC(=O)c2ccc3c(c2)N(C[C@@H]2CC[C@H]21)C[C@@]1(CCCc2cc(Cl)ccc21)CO3 2 nM

State the recorded IC50 for this entry: CO[C@H]1/C=C/C[C@H](C)C[S@@](=O)(NC(=O)N2CC(Oc3ccccn3)C2)=NC(=O)c2ccc3c(c2)N(C[C@@H]2CC[C@H]21)C[C@@]1(CCCc2cc(Cl)ccc21)CO3 0.219 nM

State the recorded IC50 for this entry: CC[C@H]1C/C=C/[C@H](OC)[C@@H]2CC[C@H]2CN2C[C@@]3(CCCc4cc(Cl)ccc43)COc3ccc(cc32)C(=O)N=[S@](=O)(NC(=O)c2cn(C)nc2OC)C1 0.122 nM

State the recorded IC50 for this entry: CO[C@H]1/C=C/[C@H](OC)[C@H](C)C[S@@](=O)(NC(=O)N[C@H]2CC2C(F)F)=NC(=O)c2ccc3c(c2)N(C[C@@H]2CC[C@H]21)C[C@@]1(CCCc2cc(Cl)ccc21)CO3 (stereo partly shown) 0.076 nM

State the recorded IC50 for this entry: COCCOCCO[C@H]1/C=C/[C@H](OC)[C@@H]2CC[C@H]2CN2C[C@@]3(CCCc4cc(Cl)ccc43)COc3ccc(cc32)C(=O)N=[S@](=O)(NC(=O)c2cn(C)nc2OC)C[C@H]1C 0.031 nM

State the recorded IC50 for this entry: CO[C@H]1/C=C/C[C@H](C)C[S@@](=O)(NC(=O)N[C@H]2CC2(F)F)=NC(=O)c2ccc3c(c2)N(C[C@@H]2CC[C@H]21)C[C@@]1(CCCc2cc(Cl)ccc21)CO3 0.025 nM

State the recorded IC50 for this entry: COc1nc(N2CCOCC2)ncc1C(=O)N[S@@]1(=O)=NC(=O)c2ccc3c(c2)N(C[C@@H]2CC[C@H]2[C@@H](OC)/C=C/C[C@H](C)C1)C[C@@]1(CCCc2cc(Cl)ccc21)CO3 0.251 nM

State the recorded IC50 for this entry: COc1nn(C(F)F)cc1C(=O)N[S@@]1(=O)=NC(=O)c2ccc3c(c2)N(C[C@@H]2CC[C@H]2[C@@H](OC)/C=C/C[C@H](C)C1)C[C@@]1(CCCc2cc(Cl)ccc21)CO3 0.043 nM

State the recorded IC50 for this entry: CO[C@H]1/C=C/CCC[S@@](=O)(NC(=O)CCc2ccco2)=NC(=O)c2ccc3c(c2)N(C[C@@H]2CC[C@H]21)C[C@@]1(CCCc2cc(Cl)ccc21)CO3 1.5 nM

State the recorded IC50 for this entry: CO[C@H]1/C=C/CCC[S@@](=O)(NC(=O)C[C@H](O)c2ccccc2)=NC(=O)c2ccc3c(c2)N(C[C@@H]2CC[C@H]21)C[C@@]1(CCCc2cc(Cl)ccc21)CO3 0.1 nM
